Biological target: furin, P09958;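 note: purified furin at 1:10 enzyme:substrate in 50 mM HEPES pH 7.5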
Sequence (P09958 whole entry): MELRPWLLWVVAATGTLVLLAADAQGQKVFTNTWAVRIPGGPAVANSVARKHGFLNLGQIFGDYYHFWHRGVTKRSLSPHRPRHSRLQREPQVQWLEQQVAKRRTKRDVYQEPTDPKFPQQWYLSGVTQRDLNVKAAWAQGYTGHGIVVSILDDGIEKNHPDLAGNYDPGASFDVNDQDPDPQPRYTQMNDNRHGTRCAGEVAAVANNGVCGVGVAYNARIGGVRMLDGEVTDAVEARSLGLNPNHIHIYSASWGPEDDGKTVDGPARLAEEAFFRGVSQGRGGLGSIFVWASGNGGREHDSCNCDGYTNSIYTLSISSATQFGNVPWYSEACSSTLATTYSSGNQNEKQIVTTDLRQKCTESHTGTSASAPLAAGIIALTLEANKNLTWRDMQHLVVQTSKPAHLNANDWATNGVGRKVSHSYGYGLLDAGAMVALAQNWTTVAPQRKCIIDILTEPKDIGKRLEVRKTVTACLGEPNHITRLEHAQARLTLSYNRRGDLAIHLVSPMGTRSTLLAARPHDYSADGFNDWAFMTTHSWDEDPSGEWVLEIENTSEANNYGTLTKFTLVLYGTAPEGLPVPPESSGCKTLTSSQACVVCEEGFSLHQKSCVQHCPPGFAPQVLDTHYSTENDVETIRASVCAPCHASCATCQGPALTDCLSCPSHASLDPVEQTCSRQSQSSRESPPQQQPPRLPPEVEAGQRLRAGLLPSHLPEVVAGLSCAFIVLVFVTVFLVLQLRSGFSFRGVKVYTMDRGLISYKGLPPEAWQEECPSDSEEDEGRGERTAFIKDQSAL
Assay: furin cleavage Z-score vs untreated control; higher = more cleavage, active = 3.5 or more, inactive = 1 or less, 8 variable residues between constant flanks
Details: 30 min
This is one part of the list. The hit rate among all sequences tested is not known here.
Classes used: active, inactive

{"sequence.data": "CALNEIKKRFAGNASASA [FS-352]", "label": "inactive"}
{"sequence.data": "CAVAIKSLTEAGNASASA [HC1496]", "label": "inactive"}
{"sequence.data": "CAKKGRGKRTAGNASASA [FS-41]", "label": "active"}
{"sequence.data": "CARRARSAPAAGNASASA [FS-2368]", "label": "active"}
{"sequence.data": "CAVRSRSIRSAGNASASA [FS-1663]", "label": "active"}
{"sequence.data": "CARRKKSLSEAGNASASA [FS-3050]", "label": "active"}
{"sequence.data": "CARTRRCVCVAGNASASA [FS-3213]", "label": "inactive"}
{"sequence.data": "CARTRREAPRAGNASASA [FS-2096]", "label": "active"}
{"sequence.data": "CAKMRRKKRFAGNASASA [FS-1459]", "label": "active"}
